- System: MRC5
- procedure-text: Hoechst 33342 nuclear staining, MRC5
- Type: cell-based
- Set-up: key: 0 = no activity, 1 = weak (<50% of cells), 2 = strong (>50% of cells)
- details: MRC5, 48 h, conc. 3 (μM)
readout-label: Hoechst 33342 nuclear staining score

[[record]]
compound = "COc1cccc(/C=C/C(=O)Cn2c(-n3ncnc3N)nc3ccccc32)c1 [Example 9]"
result = 0

[[record]]
compound = "COc1ccc(C(=O)Cn2c(-n3ccc(N)n3)nc3ccccc32)cc1 [Example 2]"
result = 0


----------
- System: Jurkat
- procedure-text: MTS proliferation assay, Jurkat
- Format: cell-based, human
- details: Homo sapiens, 72 h incubation
readout-label: IC50

[[record]]
chemical_smiles = "Cc1ccc(C(=O)Cn2c(-n3ncnc3N)nc3ccccc32)cc1C"
readout_label = "IC50"
result = "< 100 nM"

